Tested System: Pantothenate synthetase (Mycobacterium tuberculosis (strain ATCC 25618 / H37Rv)) (UniProt P9WIL5)
Sequence (P9WIL5 whole entry, looked up): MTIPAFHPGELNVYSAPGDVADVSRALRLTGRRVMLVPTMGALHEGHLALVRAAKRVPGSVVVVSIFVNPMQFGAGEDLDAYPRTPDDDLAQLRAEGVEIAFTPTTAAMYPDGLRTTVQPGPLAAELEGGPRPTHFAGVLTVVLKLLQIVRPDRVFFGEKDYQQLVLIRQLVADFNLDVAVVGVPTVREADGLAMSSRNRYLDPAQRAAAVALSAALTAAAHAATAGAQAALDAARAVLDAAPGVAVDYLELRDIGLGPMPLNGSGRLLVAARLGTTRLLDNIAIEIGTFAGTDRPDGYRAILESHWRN
Protocol Summary: Biochemical confirmation of M. tuberculosis pantothenate synthetase inhibitors (AID 838)
Condition Description: M. tuberculosis pantothenate synthetase enzyme inhibition; at 100 µM
The source made the active and inactive calls. No rule for the calls is given here.
Measurement Type: inhibition

> print(dat)
                                   molecule  measurement.type   reading
1  Cc1ccccc1Cn1cc(NC(=O)c2cc(-c3ccco3)on2)cn1        inhibition  inactive
2  O=C(Nc1cnn(Cc2ccc(F)cc2)c1)c1cc(C2CC2)on1        inhibition  inactive
3  Cc1cc(C(=O)N2CCCN(c3cc(-c4cc(F)ccc4C)ncn3)CC2)no1        inhibition  inactive
4  COc1cccc(C2c3nc[nH]c3CCN2C(=O)c2cc(C)on2)c1 (configuration not stated)        inhibition  inactive
5  COCCN(CC1CCCN(C(=O)c2cc(C)on2)C1)C(C)C (configuration not stated)        inhibition  inactive
6  CC(C)(C)c1ccc2onc(C(=O)Nc3cnn(Cc4cccc(F)c4)c3Cl)c2c1        inhibition  inactive
7  O=C(Nc1cnn(Cc2ccc(Cl)cc2Cl)c1)c1noc2c1CCCCC2        inhibition  inactive

---

Tested System: Pantothenate synthetase (Mycobacterium tuberculosis (strain ATCC 25618 / H37Rv))
Protocol Summary: Biochemical confirmation of M. tuberculosis pantothenate synthetase inhibitors (AID 838)
Condition Description: M. tuberculosis pantothenate synthetase enzyme inhibition; at 100 µM
Calls of active or inactive are those of the source. The rule behind the calls is not given here.
Measurement Type: inhibition

> print(dat)
                                    molecule                             tested.system   reading
 1  Cc1cc(C(=O)N2CCc3[nH]cnc3C2c2ccccc2F)no1 (stereo unspecified)  Pantothenate synthetase (Mycobacterium tuberculosis (strain ATCC 25618 / H37Rv))  inactive
 2  O=C(Nc1cnn(Cc2ccc(Cl)cc2Cl)c1)c1noc2c1CCCC2  Pantothenate synthetase (Mycobacterium tuberculosis (strain ATCC 25618 / H37Rv))  inactive
 3  Cc1cc(C(=O)N2CCc3[nH]cnc3C2c2ccc(-n3cncn3)cc2)no1 (stereo unspecified)  Pantothenate synthetase (Mycobacterium tuberculosis (strain ATCC 25618 / H37Rv))  inactive
 4  O=C(Nc1cnn(Cc2ccc(F)cc2)c1)c1noc2c1CC(c1ccccc1)CC2 (stereo unspecified)  Pantothenate synthetase (Mycobacterium tuberculosis (strain ATCC 25618 / H37Rv))  inactive
 5  Cc1cc(C(=O)N2CCCC(CN3CCN(c4cnccn4)CC3)C2)no1 (stereo unspecified)  Pantothenate synthetase (Mycobacterium tuberculosis (strain ATCC 25618 / H37Rv))  inactive
 6  COc1cc(C(=O)Nc2cnn(Cc3cccc(I)c3)c2)cc(OC)c1OC  Pantothenate synthetase (Mycobacterium tuberculosis (strain ATCC 25618 / H37Rv))  inactive
 7  Cc1cc(C(=O)N2CCc3[nH]cnc3C2c2ccc(F)cc2)no1 (stereo unspecified)  Pantothenate synthetase (Mycobacterium tuberculosis (strain ATCC 25618 / H37Rv))  inactive
 8  O=C(Nc1cnn(Cc2ccc(F)cc2)c1)c1noc2ccccc12  Pantothenate synthetase (Mycobacterium tuberculosis (strain ATCC 25618 / H37Rv))  inactive
 9  COc1ccccc1-c1cc(C(=O)Nc2cnn(Cc3ccccc3C)c2)no1  Pantothenate synthetase (Mycobacterium tuberculosis (strain ATCC 25618 / H37Rv))  inactive
10  O=C(Nc1cnn(Cc2ccc(F)cc2)c1)c1noc2c1CCCC2  Pantothenate synthetase (Mycobacterium tuberculosis (strain ATCC 25618 / H37Rv))  inactive
11  Cc1cc(C(=O)NCCc2nc(C(=O)NCCN(C)C)cs2)no1  Pantothenate synthetase (Mycobacterium tuberculosis (strain ATCC 25618 / H37Rv))  inactive

Cited source for all entries: PubChem BioAssay AID838
